system tested: α1A adrenoceptor (Rattus norvegicus)
Construct: from tissue; host or cells: rat submaxillary gland membranes
Sequence (P43140 whole entry): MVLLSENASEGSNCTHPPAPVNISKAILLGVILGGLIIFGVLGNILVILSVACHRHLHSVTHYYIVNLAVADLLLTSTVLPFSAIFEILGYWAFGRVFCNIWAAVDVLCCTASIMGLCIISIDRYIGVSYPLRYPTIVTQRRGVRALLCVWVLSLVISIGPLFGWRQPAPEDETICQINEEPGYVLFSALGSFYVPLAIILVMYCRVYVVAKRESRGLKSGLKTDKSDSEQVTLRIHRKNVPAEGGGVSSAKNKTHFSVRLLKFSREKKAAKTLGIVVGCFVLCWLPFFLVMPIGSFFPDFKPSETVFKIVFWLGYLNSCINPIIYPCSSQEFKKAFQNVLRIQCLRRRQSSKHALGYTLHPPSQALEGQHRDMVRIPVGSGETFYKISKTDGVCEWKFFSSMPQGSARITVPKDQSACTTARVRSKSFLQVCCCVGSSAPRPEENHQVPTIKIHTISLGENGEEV
assay explanation: Radioligand binding, [3H] prazosin displacement, rat submaxillary membranes
experimental parameters: ratio of binding affinities, rat liver / rat submaxillary
Structures can show the parent of a compound that is named as a salt.

[
  {
    "molecule": "CCN(CCCN1C(=O)C2CC=CCC2C1=O)CCNc1ccccc1OC(C)C (stereo not shown)",
    "qualifier operator": ">",
    "α1B/α1A": 74
  },
  {
    "molecule": "COC1CC2C(=O)N(CCCN3CCN(c4ccccc4OC(C)C)CC3)C(=O)C2CC1OC.Cl (stereo not shown)",
    "qualifier operator": "=",
    "α1B/α1A": 137
  },
  {
    "molecule": "CC(C)Oc1ccccc1N(CCO)CCNCCCN1C(=O)C2CC=CCC2C1=O (stereo not shown) [Compound No. 68, hydrochloride]",
    "qualifier operator": ">",
    "α1B/α1A": 44
  },
  {
    "molecule": "CC(C)Oc1ccccc1N1CCN(CC(O)CN2C(=O)C3CC=CCC3C2=O)CC1.Cl (stereo not shown)",
    "qualifier operator": "=",
    "α1B/α1A": 189
  }
]
